B1: TRIM43 (parent)
chain: RAQMIRNEYRKLHPVLHKEEKQHL

Variants of: B1
Test Name: protein stability index of a GFP-peptide fusion (GPS, HEK-293T) (PSI 1-6); higher = more stable;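 further: lentivirally expressed fusions sorted by FACS into six bins by GFP to DsRed ratio, PSI derived from sequencing read proportions per bin multiplied by bin number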
Assay Conditions: c terminus: a fixed tail appended
Catalogue of protein stability index values
Measure Name: protein stability index

# Variant Name, Result
data = [
    ("L16H", 3.2),
    ("V15R", 3.37),
    ("P14W", 2.51),
    ("E19P", 4.02),
    ("E8N", 3),
    ("L24F", 2.36),
    ("L24R", 3.06),
    ("L16Q", 3.85),
    ("Y9E", 3.96),
    ("A2F", 1.95),
    ("H17I", 2.8),
    ("R1D", 3.89),
    ("A2M", 2.91),
    ("E19T", 2.82),
    ("H23P", 3.09),
    ("R1K", 2.93),
    ("A2Q", 3.09),
    ("R1S", 3.78),
    ("R1C", 2.17),
    ("H13P", 3.19),
    ("E8Q", 2.75),
    ("I5A", 4.03),
    ("A2D", 3.51),
    ("K11P", 4.16),
    ("H17A", 2.37),
]
